Hey, just so you know, these numbers are from patent US20030148956A1.

Entries and their CRF2R EC50
Biological target: T1, CRF2R
T1 sequence (Q13324 whole entry, species assumed, looked up): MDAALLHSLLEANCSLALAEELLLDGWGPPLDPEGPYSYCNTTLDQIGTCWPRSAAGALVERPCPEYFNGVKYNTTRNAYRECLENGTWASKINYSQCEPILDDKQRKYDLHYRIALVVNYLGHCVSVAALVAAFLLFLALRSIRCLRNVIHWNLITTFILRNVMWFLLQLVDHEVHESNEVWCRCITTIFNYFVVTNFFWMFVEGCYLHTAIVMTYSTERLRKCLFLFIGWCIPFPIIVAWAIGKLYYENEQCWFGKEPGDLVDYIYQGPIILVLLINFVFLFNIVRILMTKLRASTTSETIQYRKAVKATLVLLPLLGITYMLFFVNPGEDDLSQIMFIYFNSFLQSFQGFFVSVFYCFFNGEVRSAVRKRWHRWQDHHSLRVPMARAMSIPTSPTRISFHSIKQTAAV
Assay: cell-based or functional assay
Ends that are not written are not given here.

- binder: "ZGPPISIDLPYLLLRKMIEIEKQEKEKQQAANNRLLLDTI (C-terminal amide) [SEQ ID NO 203]"
  CRF2R EC50: "5.2 nM"
- binder: "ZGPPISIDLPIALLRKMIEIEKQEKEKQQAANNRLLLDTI (C-terminal amide) [SEQ ID NO 47]"
  CRF2R EC50: "> 100 nM"
- binder: "IVLSLDVPIGLLQILLEQAAAREQATTNARILARV-NH2 [SEQ ID NO 139]"
  CRF2R EC50: "42.6 nM"
- binder: "IVLSLDVPIGLLQILLEQAKAEAAREQATTNARILARV-NH2 [SEQ ID NO 112]"
  CRF2R EC50: "12.3 nM"
- binder: "IVLSLDVPIGLLQILLEQTRARAAREQATTNARILARV-NH2 [SEQ ID NO 128]"
  CRF2R EC50: "2.85 nM"
- binder: "ZGPPISIDLPQHLLRKMIEIEKQEKEKQQAANNRLLLDTI (C-terminal amide) [SEQ ID NO 207]"
  CRF2R EC50: "61.4 nM"
- binder: "ZGPPISIDLPLYLLRKMIEIEKQEKEKQQAANNRLLLDT (C-terminal amide) [SEQ ID NO 81]"
  CRF2R EC50: "4.3 nM"
- binder: "IVLSLDVPIGLLQILLEMTKADQLAQQAHSNRKLLDIA-NH2 [SEQ ID NO 155]"
  CRF2R EC50: "20.6 nM"
- binder: "IVLSLDVPIGLLQILLEQAKQEAAREQATTNARILARV-NH2 [SEQ ID NO 124]"
  CRF2R EC50: "3.49 nM"
- binder: "ZGPPISIDVPFQLLRKMIEIEKQEKEKQQATTNARILARV (C-terminal amide) [SEQ ID NO 172]"
  CRF2R EC50: "13.5 nM"
- binder: "ZGPPISIDLPWFLLRKMIEIEKQEKEKQQAANNRLLLDTI (C-terminal amide) [SEQ ID NO 187]"
  CRF2R EC50: "10.3 nM"
- binder: "ZGPPISIDLPFQLLRKMIEIEKQEKEKQQAAANRLLLDTV (C-terminal amide) [SEQ ID NO 15]"
  CRF2R EC50: "6.56 nM"
